Value source: PubChem BioAssay AID179

Attribute: pEC50
- Tested on: CEM cells HIV-1 protection, formazan growth assay
- test: NCI AIDS Antiviral Assay
pEC50: −log10 of the molar value.

compound	target-of-assay	pEC50
COc1cc2c(oc(=O)c3c4oc([Si](C)(C)C)cc4cc(OC)c23)c2cccc(OCc3ccccc3)c12	CEM cells HIV-1 protection, formazan growth assay	< 6.30
O=C1OC(c2ccc(Cl)c3ccccc23)c2ccccc21 (stereo not given)	CEM cells HIV-1 protection, formazan growth assay	< 4.75
CC1C(O)=C(O)c2ccccc2N1O (stereo not given)	CEM cells HIV-1 protection, formazan growth assay	< 3.31
CC(=O)Nc1ccc(S(=O)(=O)N/N=C/c2cc(I)cc([N+](=O)[O-])c2O)cc1	CEM cells HIV-1 protection, formazan growth assay	< 3.30
COCN1C(=O)[C@@H]2C[C@@H](O)CN2C(=O)c2ccccc21	CEM cells HIV-1 protection, formazan growth assay	< 3.70
Brc1ccc2c(-c3csc(-c4c[nH]c5ccccc45)n3)c[nH]c2c1	CEM cells HIV-1 protection, formazan growth assay	< 3.70
CN1C/C(=C\c2ccc(Cl)cc2)C(=O)/C(=C/c2ccc(Cl)cc2)C1	CEM cells HIV-1 protection, formazan growth assay	< 3.70
CC(=O)CC(C)(C)S(=O)(=O)O	CEM cells HIV-1 protection, formazan growth assay	< 3.70
Cc1cc(=O)[nH]c2cc(NC(=O)C(C)NC(=O)C(C)NC(=O)C(C)NC(=O)OC(C)(C)C)ccc12 (stereo not given)	CEM cells HIV-1 protection, formazan growth assay	< 3.70
CCC(CO)NC(=O)Nc1ccc(S(=O)(=O)c2ccc([N+](=O)[O-])cc2)cc1 (stereo not given)	CEM cells HIV-1 protection, formazan growth assay	< 3.70
CN(C)/C=C/c1nnnn1-c1ccc(I)cc1	CEM cells HIV-1 protection, formazan growth assay	< 3.70
Cc1cc(CN(Cc2ccccc2)Cc2nc3ccccc3[nH]2)c(O)c(CN(Cc2nc3ccccc3[nH]2)Cc2nc3ccccc3[nH]2)c1	CEM cells HIV-1 protection, formazan growth assay	< 3.70
Cc1cc2c(cc1-c1cc3c(cc1C)C(C(C)C)=C(O)C(=O)/C3=C\Nc1ccccn1)/C(=C/Nc1ccccn1)C(=O)C(O)=C2C(C)C	CEM cells HIV-1 protection, formazan growth assay	< 4.00
CCOC(=O)c1c(OC)cc2n(c1=O)Cc1cc3ccccc3nc1-2	CEM cells HIV-1 protection, formazan growth assay	< 5.00
Nc1nc(N)c2ncn(CCOC(c3ccccc3)P(=O)(O)O)c2n1 (stereo not given)	CEM cells HIV-1 protection, formazan growth assay	< 3.70
CCc1ccc(Cc2ccc(CC)c(NC(=O)C(=O)C3NC(=S)NC3=O)c2CC)c(CC)c1NC(=O)C(=O)C1NC(=S)NC1=O (stereo not given)	CEM cells HIV-1 protection, formazan growth assay	< 4.82
CCN(CC)Cc1cc2[nH]c3c4ccc(Cl)cc4ncc3c2cc1OC (tested in a mixture with another compound)	CEM cells HIV-1 protection, formazan growth assay	< 4.00
CCOC(=O)c1oc2cc(O)cc(O)c2c(=O)c1-c1ccc(OC)cc1	CEM cells HIV-1 protection, formazan growth assay	< 3.70
CN(c1ccc(Cl)cc1)S(=O)(=O)c1ccccc1[N+](=O)[O-]	CEM cells HIV-1 protection, formazan growth assay	< 3.70
O=C(Nc1ccc(-c2ccccc2)oc1=O)c1ccccc1	CEM cells HIV-1 protection, formazan growth assay	< 4.00

###

- System: CEM cells HIV-1 protection, formazan growth assay
- test: NCI AIDS Antiviral Assay
- run-conditions: measured here: growth of uninfected CEM cells
Attribute: log10 of IC50
metric-name: log10 of IC50 (log10 of the value in µM)

molecule	log10 of IC50
CCCCCCCN(O)CC1OC(n2ccc(=O)[nH]c2=O)C(O)C1O (centres undefined)	2.15
CCN(CC)CCN(C(=Nc1ccccc1)N1CCOCC1)c1ccccc1	1.62
CC(C)=CCC[C@@H](C)C1=C(Nc2ccccc2Cl)C(O)=C(C)C(=O)C1=O	0.19
O=C(Nc1nc(=S)[nH][nH]1)C(=O)C(C(=O)c1ccc2ccccc2c1)C1OC(=O)c2ccccc21 (centres undefined)	1.41
S=C1N/N=C/NN/C=N/N1	2.45
O=C1CC(c2ccc(Cl)cc2)C2(C(=O)NC(=O)NC2=O)C(c2ccc(Cl)cc2)C1 (centres undefined)	1.54
O=C(/C=C/c1ccc(O)c(O)c1)c1cc(O)cc(O)c1	1.18
C[C@H]1S[C@H](c2c(F)cccc2F)n2c1nc1ccccc12	1.53
O=Nn1cc(-c2cc3ccccc3n2N=O)c2ccccc21	1.99
O=C(CSc1nnc(Cc2ccccc2)o1)Nc1ccc(Cl)cc1[N+](=O)[O-]	1.40
O=NNc1nc(-c2ccccn2)nc2ccccc12	0.90
C=C(C)[C@@]1(O)CCCC[C@@H]1CC(Sc1ccccc1)Sc1ccccc1	1.28
CCCCCCC1N(Cc2ccc(Cl)cc2)CCCN1Cc1ccc(Cl)cc1	1.08
O=C(NCCCN(CCCCN(CCCNC(=O)C(F)(F)F)Cc1ccccc1)Cc1ccccc1)C(F)(F)F	1.57
NNC(=S)N/N=C(\CC1OC(=O)c2ccccc21)c1ccccc1O (centres undefined)	2.32
CC(C)=CCC[C@@H](C)C1=C(O)C(N[C@H](C)c2ccccc2)=C(C)C(=O)C1=O	0.22
CC12CCC([C@H](N3CCOCC3)/C1=N\OCCN1CCCC1)C2(C)C (some centres undefined)	2.14
O=C(Nc1ccc([N+](=O)[O-])cn1)Nc1cc([N+](=O)[O-])ccc1F	1.24
O=C1OC(O)C(Oc2ccc(Cl)cc2)=C1Cl (centres undefined)	2.29
c1ccc(SC2(Sc3ccccc3)CCCCCCCCCCC2)cc1	2.22
Cc1nn(C(=O)c2ccccc2O)c2c1C(c1ccco1)SC(N)=N2 (centres undefined)	0.09

###

- System: CEM cells HIV-1 protection, formazan growth assay
- test: NCI AIDS Antiviral Assay
- run-conditions: measured here: growth of uninfected CEM cells
metric-name: IC50 (µM)

compound	unit-label	readout-number
CCOC(=O)CNCc1cc(=O)[nH]c2cc(Cl)ccc12	µM	40.7
O=C(/C=C/c1cccc2ccccc12)c1ccccc1[N+](=O)[O-]	µM	3.24
COC1/C=C/OC2(C)Oc3c(C)c(O)c4c(O)c(c(/C=N/N(C)c5ncnc6c5ncn6C5OC(CO)C(O)C5O)c(O)c4c3C2=O)NC(=O)C(C)=C/C=C/C(C)C(O)C(C)C(O)C(C)C(OC(C)=O)C1C (centres undefined)	µM	110

###

Attribute: pIC50
- Test system: CEM cells HIV-1 protection, formazan growth assay
- test: NCI AIDS Antiviral Assay
- run-conditions: measured here: growth of uninfected CEM cells
- Protocol: The ability of compounds to protect human CEM cells from HIV-1 infection is measured as a screen for new compounds capable of inhibiting the HIV virus. Five concentrations of drug were tested on uninfected and infected cells and cell growth was measured using a soluble formazan assay. […] Compounds that provided at least 50% protection were retested. Compounds that provided at least 50% protection on retest were listed as moderately active. […]
pIC50: −log10 of the molar value.

compound	pIC50
CCCCn1cc(C(=O)O)c(=O)c2c3sccc3ccc21	4.65
CC(Nc1ccc(Cl)c(Cl)c1)c1ccncc1 (stereo unspecified)	4.54
Cc1cccc2c1Oc1ccccc1C2NC(=O)CCN(C)C (stereo unspecified)	4.42
CCOC(=O)CC(=O)N(c1ccc(OC)cc1)C(C(=O)OC)c1ccccc1 (stereo unspecified)	3.78
CN1CCC23c4ccccc4NC1C21CCN(C)C3Nc2ccccc21	3.21

###

- Test system: CEM cells HIV-1 protection, formazan growth assay
- test: NCI AIDS Antiviral Assay
- run-conditions: measured here: growth of uninfected CEM cells

molecule	IC50
N#Cc1c(O)c(C=O)c(=O)n2c1[nH]c1ccccc12	170 µM
CC(=O)NNC(=S)/N=C/C(C(=O)Nc1ccccc1)=C(/C)O	> 200 µM
N#Cc1ccc(/C=C2\Cc3ccccc3C2=O)cc1	> 200 µM
CCOc1cc2c(cc1O)C(=O)C[C@@H]1[C@@H]2CC[C@]2(C)[C@@H](O)CC[C@@H]12	0.0794 µM
CC(/C=C/c1ccccc1)=N\NC(=S)N/N=C(C)/C=C/c1ccccc1	4.07 µM
CN(C(=O)C12C3C4C1C1C2C3C41C#N)C(C)(C)C (stereo unspecified)	> 41.7 µM
Cc1cc2oc(=N)c(C#N)c(C)c2cc1C	43.7 µM
CN(C)c1ccc(/C=C(/NC(=O)c2ccccc2)c2nc3ccc(Cl)cc3[nH]2)cc1	> 17.4 µM
CCOC(=O)Cc1cc(=O)n(C)c2ccccc12	> 200 µM
O=c1n(CCCN2CCN(c3cccc(Cl)c3)CC2)nc2n1-c1ccc3ccccc3c1SC2	> 200 µM
N=c1nnc(=O)c2c(s1)-n1ncc(C(=O)O)c1NN2	> 81.3 µM

###

- Test system: CEM cells HIV-1 protection, formazan growth assay
- test: NCI AIDS Antiviral Assay;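 active means compounds giving half or more protection of infected cells from virus-caused growth loss, again on retest; inactive means the rest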
Possible outcomes: label 1 (active), label 0 (inactive)

compound	classification
C/C(=C\c1ccc([N+](=O)[O-])cc1)C(=O)O	label 0
COc1cc(C(c2c(O)c3ccccc3oc2=O)c2c(O)c3ccccc3oc2=O)cc(OC)c1O	label 0
COc1cc(C(=O)C/C(CCC(=O)Nc2ccccc2[N+](=O)[O-])=N\NC(=O)C(N)=O)ccc1O	label 0
Nc1nnc2nc(CC(=O)c3cccc([N+](=O)[O-])c3)/c(=C/C(=O)c3cccc([N+](=O)[O-])c3)n12	label 0
Cn1cnc([N+](=O)[O-])c1Sc1nc2cc(Cl)c(F)cc2[nH]1	label 0
CC(C)(C)OC(=O)N(CCNS(=O)(=O)c1cccc2cnccc12)CCC(=O)ON1C(=O)CCC1=O	label 0
CCOC(=O)[C@H]1Nc2ccc(Cl)cc2[C@H]2OCC[C@@H]12	label 0
CCN1C2=NCCN2S(=O)(=O)c2ccccc21	label 0
N#C/C(=C\c1ccccc1)C(=O)c1ccccc1	label 0
CCOC(=O)CCC(NC(=O)N1CCN(c2c(C)nc(C)[nH]c2=O)CC1)C(=O)OCC (configuration not stated)	label 0
CN(C(=O)c1ccc(Cl)s1)C(=S)N(C)C(=O)c1ccc(Cl)s1	label 0
COc1ccc2c(c1)C(C(=O)O)CC(=O)N2C (configuration not stated)	label 0
CN(C)C=C1C(=O)NC(=O)NC1=O	label 0
CCOC(=O)Cc1csc2[n+]1C(=O)/C(=C/c1ccc(OC)c(OC)c1)S2	label 0
O=C(NC(=S)Nc1ccc(Cl)c(Cl)c1)c1cccc([N+](=O)[O-])c1	label 0
Cc1cccc2c1Oc1cc(Cl)ccc1C2NC(=O)CCN1CCOCC1 (configuration not stated)	label 0
CC(=O)CCC#Cc1ccccc1C(=O)C(C)=[N+]=[N-]	label 0
NC(=O)C1=Cc2cccn2-c2ccccc2S1	label 0
Cc1cc(S(=O)(=O)NC2=NCCCN2)c(S)cc1Cl	label 1
CSC(=NC(=O)c1ccccc1)SCCSC(=NC(=O)c1ccccc1)SC	label 0
Nc1ncnc2c1ncn2C1C=CC(COS(N)(=O)=O)C1 (configuration not stated)	label 0
O=[N+]([O-])c1cccc2nc3ccccc3c(NCCCN3CCCCC3)c12	label 0
